Attribution: the Human Domainome abundance scans (Beltran et al. 2025)

B1: Ankyrin repeat and SAM domain-containing protein 6, residues 774 to 836; numbered along this chain, Q68DC2 (parent)
chain: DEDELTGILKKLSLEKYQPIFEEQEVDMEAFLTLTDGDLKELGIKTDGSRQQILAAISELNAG

# Variants of: B1
# protocol-summary: abundance fitness (aPCA) (normalised: wild type 0, dead -1); higher = more abundant; growth selection in yeast, the domain comes from the species named
# condition-info: Homo sapiens
reported-property: abundance fitness
Write no unit; give the number alone.

mutation-list: E41D
abundance fitness: -0.044
//
mutation-list: Q52S
abundance fitness: -0.105
//
mutation-list: A55S
abundance fitness: 0.043

V26S yielded abundance fitness of -0.649

The reported value for T46Q in terms of abundance fitness is -0.201

Measured abundance fitness of E22I : -0.854

Note to self: abundance fitness recorded for I57V was -0.206
